Test system: HepG2 cells
Assay: Measurement of triglyceride synthesis inhibitory ability
Assay type: cell-based
Settings: 500 μM compound, 24 hours, HepG2 cells; content of triglyceride formed; lower value = stronger inhibition
Structures can show the parent of a compound that is named as a salt.
Binary classification by Triglyceride (500 μM) aver., with 60 as an inclusive lower bound for label 1; all other cases are label 0.

Look over these answered cases.
# molecule, class.name
data = [
    ("CCN=C(NCc1ccc2c(c1)OCO2)NC(=N)N.Cl", "label 0"),
    ("C=CCN=C(NCc1ccc2c(c1)OCO2)NC(=N)N [Example 18, hydrochloride]", "label 0"),
]

Alright, here's another molecule for you.
Q) Is Triglyceride (500 μM) aver. at least 60? Consider Cl.N=C(N)NC(=NC1CCCC1)NCc1ccc2c(c1)OCO2
A) label 1

----------
Reported activity at 100 µM values follow for various compounds
System: HepG2 cells
Experiment: Measurement of gluconeogenesis inhibitory ability
Assay type: cell-based
Conditions: Homo sapiens, HepG2, 24 h, 100 μM compound, 24 hours, HepG2 cells; content of glucose formed from 14C-lactate; lower value = stronger inhibition; read-out: Gluconeogenesis inhibition (100 μM) aver.
Protocol: 2 mM metformin was used as a comparative compound for each of the plates (control group). HepG2 cells (ATCC: American Type Culture Collection) were cultured in 10% serum-containing high glucose media, transferred to no serum-containing low glucose media (DMEM (Gibco), FBS (Gibco)), and then treated with 100 μM of each of the compounds for 24 hours. […] Then, the cells were neutralized with 1N HCl, and the content of glucose formed in the cells was measured with a liquid scintillation counter. […]
Hi! Could you send only the number? It should be in %, unit omitted.

The examples below pair each entry with its known result.
# compound, target.or.system, val
records = [
    ("Cc1cccc(N=C(NCc2ccc3c(c2)OCO3)NC(=N)N)c1.Cl [Example 42, hydrochloride]", "HepG2 cells", 56.1),
    ("CCCCCN=C(NCc1ccc2c(c1)OCO2)NC(=N)N.Cl [Example 40, hydrochloride]", "HepG2 cells", 84.6),
    ("CCCCCCN=C(NCc1ccc2c(c1)OCO2)NC(=N)N.Cl [Example 6, hydrochloride]", "HepG2 cells", 104),
    ("COc1cc(N=C(NCc2ccc3c(c2)OCO3)NC(=N)N)cc(OC)c1.Cl [Example 26, hydrochloride]", "HepG2 cells", 87.6),
    ("COc1cc(N=C(NCc2ccc3c(c2)OCO3)NC(=N)N)cc(OC)c1OC.Cl [Example 24, hydrochloride]", "HepG2 cells", 88.7),
]

response.value for CN=C(NCc1ccc2c(c1)OCO2)NC(=N)N.Cl [Example 17, hydrochloride] (field: activity at 100 µM) = 90.2

response.value for CCCCCCc1ccc(N=C(NCc2ccc3c(c2)OCO3)NC(=N)N)cc1.Cl [Example 25, hydrochloride] (field: activity at 100 µM) = 2.53

response.value for Cl.N=C(N)NC(=Nc1cccc(C(F)(F)F)c1)NCc1ccc2c(c1)OCO2 [Example 10, hydrochloride] (field: activity at 100 µM) = 2.76

----------
System: HepG2 cells
Assay: Measurement of gluconeogenesis inhibitory ability
Assay type: cell-based
Settings: Homo sapiens, HepG2, 24 h, 100 μM compound, 24 hours, HepG2 cells; content of glucose formed from 14C-lactate; lower value = stronger inhibition; read-out: Gluconeogenesis inhibition (100 μM) aver.
outcome.measure: activity at 100 µM (%)
Hi! Could you send only the number? It should be in %, unit omitted.

# molecule, activity at 100 µM (%)
rows = [
    ("CCCCN=C(NCc1ccc2c(c1)OCO2)NC(=N)N.Cl [Example 39, hydrochloride]", 87.3),
    ("COCCOCCOCCN=C(NCc1ccc2c(c1)OCO2)NC(=N)N.Cl [Example 46, hydrochloride]", 101),
]

response.value for CCCN=C(NCc1ccc2c(c1)OCO2)NC(=N)N.Cl [Example 16, hydrochloride] (field: activity at 100 µM) = 33.1

response.value for Cl.N=C(N)NC(=Nc1cccc(Br)c1)NCc1ccc2c(c1)OCO2 [Example 41, hydrochloride] (field: activity at 100 µM) = 0

response.value for Cl.N=C(N)NC(=Nc1ccc(Oc2ccccc2)cc1)NCc1ccc2c(c1)OCO2 [Example 30, hydrochloride] (field: activity at 100 µM) = 3.04

response.value for Cl.N=C(N)NC(=NCc1ccc(F)cc1)NCc1ccc2c(c1)OCO2 [Example 43, hydrochloride] (field: activity at 100 µM) = 83.5

response.value for Cl.N=C(N)NC(=NC12CC3CC(CC(C3)C1)C2)NCc1ccc2c(c1)OCO2 [Example 27, hydrochloride] (field: activity at 100 µM) = 31.4

response.value for COCCN=C(NCc1ccc2c(c1)OCO2)NC(=N)N.Cl [Example 31, hydrochloride] (field: activity at 100 µM) = 100
